tested on: 786-0; experiment: NCI tumour cell line growth inhibition, 48 h
The source made the active and inactive calls. No stated cut-off is given here; in the data, active = GI50 up to about 1.1 µM and inactive = higher.
property: GI50

>>> df
                                   compound  property  reported_measurement
0  O=C1CC(C(=O)N2CCCCC2)n2c(=O)n(-c3ccccc3)c(=O)n2C1 (configuration not stated)      GI50   > 100 µM (inactive)

Data request, read-out GI50, for O=C(N/C(=C\c1ccccc1)c1nc2ccccc2c(=O)o1)c1ccccc1
41.7 µM (inactive)

----------
test system: SK-MEL-28; assay: NCI tumour cell line growth inhibition, 48 h
Active and inactive are the calls of the source. Cut-off read from the data, not from the text of the source: active = GI50 up to about 1.1 µM and inactive = higher.
One label from this list, please: active, inactive

Illustrative cases are given below, each with its answer.
                                   compound  system_under_test  class_assignment
0  [O-]c1on[n+]2c1c(Nc1ccc(Cl)cc1)nc1ccccc12          SK-MEL-28          inactive
1  COC(=O)[C@]1(C)CCCC2(C)C1CC[C@H]1C=C(C)[C@H]3CCC12C3 (stereo not given in full)          SK-MEL-28          inactive
2  COc1cc2cc(C(=O)N3CC(CCl)c4c3cc(NC(=O)C(C)(C)c3ccccc3[N+](=O)[O-])c3ccccc43)[nH]c2c(OC)c1OC (stereo not given)          SK-MEL-28          inactive

Would you mind telling me which call this test gave Nc1cc2c(c3ccccc13)C(CCl)CN2C(=O)c1cc2cc(NC(=O)c3cc4ccccc4o3)ccc2[nH]1 (stereo not given) ?
active

Same read-out for [O-][Cl+3]([O-])([O-])O.c1ccc(C2=NN2c2ccccc2)cc1 ?
inactive

Same read-out for CSCCCCCCCCCCOc1ccc(C=C2C(=C(C#N)C#N)c3ccccc3C2=C(C#N)C#N)cc1 ?
inactive

Same read-out for COc1cc2c(cc1OC)C1CN3CCCC3C(O)C1c1cc(OC)c(OC)cc1-2 (stereo not given) ?
inactive

Same read-out for COc1ccc(/C=N/Nc2nc3ccccc3c(=O)n2-c2ccccc2)cc1 ?
inactive

Same read-out for CN(C)NC(=S)Nc1ccccc1Br ?
inactive

Same read-out for Cc1cccc2c1c1ccc3c(c1n2C)C(=O)C=CC3=O ?
inactive

----------
test system: MDA-N; assay: NCI tumour cell line growth inhibition, 48 h
The source made the active and inactive calls. No stated cut-off is given here; in the data, active = GI50 up to about 1.1 µM and inactive = higher.
Listed here are compounds together with their documented GI50.

See these solved cases before continuing.
In [3]: df
Out[3]:
                                   compound  reported_measurement
0                     CSC(SC)=C1C(=O)NN=C1C   > 100 µM (inactive)
1  CC(=O)OCC1OC(n2c(-c3ccccc3)c(/N=N/c3ccccc3)c(C)c(C#N)c2=S)C(OC(C)=O)C(OC(C)=O)C1OC(C)=O (stereo not given)   > 100 µM (inactive)
2  C=C(Cl)C(Cl)(CBr)CCC(Cl)C(C)C (stereo not given)    3.72 µM (inactive)
3         CC(C)(C)c1ccc(O)c(C[N+](C)(C)C)c1   > 100 µM (inactive)
4  COC(=O)c1c(O)ccc2c1c1c(n2Cc2cc(OC)cc(OC)c2)C(=O)c2ccccc2C1=O    3.85 µM (inactive)
5  COc1cc2cc(C(=O)N3CC(CCl)c4c3cc(NC(=O)C(C)(C)c3ccccc3[N+](=O)[O-])c3ccccc43)[nH]c2c(OC)c1OC (stereo not given)    5.12 µM (inactive)
6    COc1ccc(-c2nc3ccccc3c(=S)n2OC(C)=O)cc1      12 µM (inactive)
7  CC(C)c1ccc2c(c1)C=C1OC(=O)[C@]3(C)CCC[C@@]2(C)C13 (stereo not given in full)   > 100 µM (inactive)
8      O=Cc1c2ccccc2n2ccc3c4ccccc4[nH]c3c12    > 10 µM (inactive)

Next item in the queue.
Data request, read-out GI50, for CC(C)(C)OC(=O)CCC1NC(=O)[C@@H]2Cc3c([nH]c4ccccc34)C(c3ccccc3)N2C1=O (stereo not given in full)
19.8 µM (inactive)
